- Test system: 349418-098-R-PDC complex spheroid viability;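 note: spheroids exposed to agents for seven days before readout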
- protocol.summary: Anticancer human tumor 349418-098-R-PDC patient-derived lung adenocarcinoma cell line growth inhibition
- condition.details: second compound 1 µM; first compound 0.949 µM; stronger effect = lower value
Please note: viability, T/C exactly at 5% is Not fulfilled. Only values below 5% get Fulfilled.

Query: Does CCN(c1cc(-c2ccc(CN3CCOCC3)cc2)cc(C(=O)NCc2c(C)cc(C)[nH]c2=O)c1C)C1CCOCC1 + NC1CC1c1ccc(-c2cccc(O)c2)cc1 have viability, T/C strictly under 5%?
Result: Not fulfilled

Query: Does NS(=O)(=O)OCC1CC(n2ccc3c(NC4CCc5ccccc54)ncnc32)CC1O (stereo not given) + NC1CCC(NC2CC2c2ccccc2)CC1 have viability, T/C strictly under 5%?
Result: Not fulfilled

Query: Does NS(=O)(=O)OCC1CC(n2ccc3c(NC4CCc5ccccc54)ncnc32)CC1O (stereo not given) + NC1CC1c1ccc(-c2cccc(O)c2)cc1 have viability, T/C strictly under 5%?
Result: Not fulfilled

Query: Does Nc1ccccc1NC(=O)c1ccc(CNC(=O)OCc2cccnc2)cc1 + NC1CC1c1ccc(-c2cccc(O)c2)cc1 have viability, T/C strictly under 5%?
Result: Not fulfilled

Query: Does O=C(C=Cc1cccc(S(=O)(=O)Nc2ccccc2)c1)NO + NC1CCC(NC2CC2c2ccccc2)CC1 have viability, T/C strictly under 5%?
Result: Fulfilled

Query: Does O=C(C=Cc1cccc(S(=O)(=O)Nc2ccccc2)c1)NO + NC1CC1c1ccc(-c2cccc(O)c2)cc1 have viability, T/C strictly under 5%?
Result: Fulfilled

Query: Does CCN(c1cc(-c2ccc(CN3CCOCC3)cc2)cc(C(=O)NCc2c(C)cc(C)[nH]c2=O)c1C)C1CCOCC1 + NC1CCC(NC2CC2c2ccccc2)CC1 have viability, T/C strictly under 5%?
Result: Not fulfilled

Query: Does Nc1ccccc1NC(=O)c1ccc(CNC(=O)OCc2cccnc2)cc1 + NC1CCC(NC2CC2c2ccccc2)CC1 have viability, T/C strictly under 5%?
Result: Not fulfilled

Query: Does COc1cc(C2c3cc4c(cc3C(OC3OC5COC(C)OC5C(O)C3O)C3COC(=O)C23)OCO4)cc(OC)c1O (stereo not given) + NC1CCC(NC2CC2c2ccccc2)CC1 have viability, T/C strictly under 5%?
Result: Not fulfilled

Query: Does COc1cc(C2c3cc4c(cc3C(OC3OC5COC(C)OC5C(O)C3O)C3COC(=O)C23)OCO4)cc(OC)c1O (stereo not given) + NC1CC1c1ccc(-c2cccc(O)c2)cc1 have viability, T/C strictly under 5%?
Result: Fulfilled
